Just for reference, ChEMBL document CHEMBL1275453 is where these values come from.

system: Parabacteroides distasonis; assay: Antibacterial activity against Bacteroides distasonis assessed as percent resistant isolates by agar dilution method; assay type: functional
experimental-readout: Activity (%)
Give bare numbers, in %.

# annotated cases, reported Activity shown
In [3]: df
Out[3]:
                                   compound  readout_number
0  C[C@@H](O)[C@H]1C(=O)N2C(C(=O)O)=C(SCCNC=N)C[C@H]12 [IMIPENEM ANHYDROUS]               0
1  CCC[C@@H]1C[C@@H](C(=O)N[C@@H]([C@H]2O[C@H](SC)[C@H](O)[C@@H](O)[C@H]2O)[C@H](C)Cl)N(C)C1            41.9
2                 Cc1ncc([N+](=O)[O-])n1CCO               0

As a next step, examine the compound that follows.
Exercise: Activity for COc1c(N2C[C@@H]3CCCN[C@@H]3C2)c(F)cc2c(=O)c(C(=O)O)cn(C3CC3)c12 ?
Key: 18.6
